molecular target: T1, cynomolgus monkey IL-17A (Macaca fascicularis (cynomolgus monkey)); experiment: SPR (Biacore T200), cynomolgus IL-17A, scFv as analyte
T1 construct: also called cyno IL-17A; cyno IL17A
# Lookup of reported koff keyed by entry
measured-attribute: koff (s⁻¹)

{"columns": ["binder", "unit-tag", "reading"],
 "data": [
  ["PRO571 (humanized anti-IL-17A scFv, CDR graft of 27-31-C04) (scFv, VL-linker-VH; also called 27-31-C04-sc01; 27_31_C04_sc01) scFv: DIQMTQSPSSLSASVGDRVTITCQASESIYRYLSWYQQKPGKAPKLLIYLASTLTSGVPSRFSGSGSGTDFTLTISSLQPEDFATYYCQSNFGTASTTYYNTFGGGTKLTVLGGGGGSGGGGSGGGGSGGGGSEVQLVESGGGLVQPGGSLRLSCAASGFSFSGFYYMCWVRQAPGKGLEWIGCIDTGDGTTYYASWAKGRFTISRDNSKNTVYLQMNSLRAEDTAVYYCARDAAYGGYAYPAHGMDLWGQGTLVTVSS", "s⁻¹", "3.88e-05"],
  ["PRO592 (humanized anti-IL-17A scFv, STR graft of 27-31-C04) (scFv, VL-linker-VH; also called 27-31-C04-sc02; 27_31_C04_sc02) scFv: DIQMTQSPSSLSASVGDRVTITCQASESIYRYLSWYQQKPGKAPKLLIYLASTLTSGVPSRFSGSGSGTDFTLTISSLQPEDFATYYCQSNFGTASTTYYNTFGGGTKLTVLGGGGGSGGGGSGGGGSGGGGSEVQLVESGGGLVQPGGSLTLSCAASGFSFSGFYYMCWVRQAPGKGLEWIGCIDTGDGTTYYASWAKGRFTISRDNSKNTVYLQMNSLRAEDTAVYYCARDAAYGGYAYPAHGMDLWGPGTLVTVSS", "s⁻¹", "5.38e-05"],
  ["A1 (humanized anti-IL-17A scFv, CDR graft of 27-07-G02) (scFv, VL-linker-VH; also called 27-07-G02-sc01; 27_07_G02_sc01) scFv: DIQMTQSPSSLSASVGDRVTITCQASQTINYWLAWYQQKPGKAPKLLIYRASTLASGVPSRFSGSGSGTDFTLTISSLQPEDFATYYCQNYYYSTSRSYGFGGGTKLTVLGGGGGSGGGGSGGGGSGGGGSEVQLVESGGGLVQPGGSLRLSCAASGFSFSSDYWMCWVRQAPGKGLEWIGCIYAGDVDDTDYASWARGRFTISRDNSKNTVYLQMNSLRAEDTAVYYCARVDGFDITYFDLWGQGTLVTVSS", "s⁻¹", 0.000261],
  ["A2 (humanized anti-IL-17A scFv, STR graft of 27-07-G02) (scFv, VL-linker-VH; also called 27-07-G02-sc02) scFv: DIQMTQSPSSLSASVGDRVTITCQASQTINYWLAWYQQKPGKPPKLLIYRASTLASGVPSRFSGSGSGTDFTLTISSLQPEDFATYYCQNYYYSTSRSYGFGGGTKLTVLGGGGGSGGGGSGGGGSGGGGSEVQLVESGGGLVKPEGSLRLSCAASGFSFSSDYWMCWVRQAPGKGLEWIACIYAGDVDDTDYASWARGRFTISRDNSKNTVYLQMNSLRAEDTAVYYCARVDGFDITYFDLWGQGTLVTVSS", "s⁻¹", 0.000868]
]}
